Values from paper PMC3967790

- assay.overview: Equilibrium solubility of elacridar in microemulsion components
- Assay type: physicochemical
- recorded.conditions: Captex 300 (oil), 37 °C, oil or lipid, thermodynamic from solid
readout.label: solubility at 24 h (µg/mL)

[[record]]
molecule = "COc1cc2c(cc1OC)CN(CCc1ccc(NC(=O)c3cccc4c(=O)c5cccc(OC)c5[nH]c34)cc1)CC2 [elacridar]"
obs_value = 300

